System: Huh7.5.1 cells
Assay: Cytotoxicity, CellTiter-Glo Cell Viability Luminescent Assay
Assay type: cell-based, human
Conditions: Huh7.5.1 cells; comparisons are to aglaroxin C (6)

compound	tested.on	cytotoxicity (in words)
COc1ccc([C@]23Oc4cc(OC)cc(OC)c4[C@@]2(O)c2nc(-c4ccc(C)cc4)[nH]c(=O)c2[C@@H]3c2ccccc2)cc1 [(−)-12l]	Huh7.5.1 cells	non-toxic
COc1ccc([C@]23Oc4cc(OC)cc(OC)c4[C@@]2(O)c2nc(-c4cccc(OC)c4)[nH]c(=O)c2[C@@H]3c2ccccc2)cc1 [(−)-12s]	Huh7.5.1 cells	non-toxic
COc1ccc([C@@]23Oc4cc(OC)cc(OC)c4[C@]2(O)c2nc(-c4ccccc4)nc(OC)c2[C@H]3c2ccccc2)cc1 [12aj]	Huh7.5.1 cells	non-toxic
